assay: in vitro; settings: rat, gh3-tre-luc cells, AC50 (uM) modified / 1000, Tox21_110001=Tox21_202829; viability, 1 nM T3 present, 24 h
measureName: CC50 at 24 h

INSERT INTO measurements (molecule, recordedmeasurement) VALUES
  ('CC[C@H](N)c1ccccc1 [(S)-(-)-1-Amino-1-phenylpropane]', '> 90 µM');

###

Recorded CC50 at 24 h for the following compounds
experiment: in vitro; conditions: rat, gh3-tre-luc cells, AC50 (uM) modified / 1000
Counter-ions that a name gives are not always drawn.
measureName: CC50 at 24 h

INSERT INTO results (compound, recordedmeasurement) VALUES
  ('N=C(N)NCCC[C@H](NC(=O)[C@@H]1CCCN1C(=O)[C@@H]1CSSCCC(=O)N[C@@H](Cc2ccc(O)cc2)C(=O)N[C@@H](Cc2ccccc2)C(=O)N[C@@H](CCC(N)=O)C(=O)N[C@@H](CC(N)=O)C(=O)N1)C(=O)NCC(N)=O [Desmopressin acetate]', '> 50 µM'),
  ('O=C(O)CCNC(=O)c1ccccc1 [Betamipron]', '> 50 µM'),
  ('O=S(=O)(O)c1cc(O)c(O)c(S(=O)(=O)O)c1 [Tiron]', '> 90 µM'),
  ('CCOC(=O)CC(CC(=O)OCC)(OC(C)=O)C(=O)OCC [Acetyltriethyl citrate]', '> 90 µM'),
  ('N#CC(C#N)=Cc1cc(O)c(O)c(O)c1 [Tyrphostin 25]', '28.5 µM'),
  ('CC(=O)OCC1=C(C(=O)O)N2C(=O)[C@@H](NC(=O)CSc3ccncc3)[C@H]2SC1 [Cephapirin sodium]', '> 50 µM'),
  ('CCOC(=O)C(C)(C)Oc1ccc(Cl)cc1 [Clofibrate]', '> 90 µM'),
  ('COc1cc(C[C@H](C)N)c(OC)cc1Br', '61.8 µM');
